Target or test system: BAFF (PeproTech, Cat: 310-13) (UniProt Q9Y275 134-285)
Sequence (Q9Y275 134-285 limits assumed): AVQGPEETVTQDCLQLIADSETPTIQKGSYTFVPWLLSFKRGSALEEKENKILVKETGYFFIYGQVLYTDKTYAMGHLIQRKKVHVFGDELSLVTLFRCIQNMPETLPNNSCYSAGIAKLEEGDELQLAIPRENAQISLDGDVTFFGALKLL
Protocol text: ELISA, BAFF coated at 1 ug/mL, anti-human Fc-HRP, OD450
Test readout: Emax

Qu. Indicate the recorded Emax value for this binder: B575701 (Fc fusion, TACI-BCMA fusion protein; also called TACI-d2-BCMA-ECD-Fc) LSCRKEQGKFYDHLLRDCISCASICGQHPKQCAYFCENKLRSPGMLQMAGQCSQNEYFDSLLHACIPCQLRCSSNTPPLTCQRYCNASVTNSVKGTNADKTHTCPPCPAPEAEGAPSVFLFPPKPKDTLMISRTPEVTCVVVDVSHEDPEVKFNWYVDGVEVHNAKTKPREEQYNSTYRVVSVLTVLHQDWLNGKEYKCKVSNKALPSSIEKTISKAKGQPREPQVYTLPPSRDELTKNQVSLTCLVKGFYPSDIAVEWESNGQPENNYKTTPPVLDSDGSFFLYSKLTVDKSRWQQGNVFSCSVMHEALHNHYTQKSLSLSPGK
Ans. 2.31 nM (as printed)
